Cited source: patent US11713338B2

- System name: recombinant integrin α4β7 (Homo sapiens, UniProt P13612+P26010, DEL724-798)
- Construct: purchased R&D Systems 5397-A3-050
- Sequence (P13612 34-970 limits assumed, stated change not applied): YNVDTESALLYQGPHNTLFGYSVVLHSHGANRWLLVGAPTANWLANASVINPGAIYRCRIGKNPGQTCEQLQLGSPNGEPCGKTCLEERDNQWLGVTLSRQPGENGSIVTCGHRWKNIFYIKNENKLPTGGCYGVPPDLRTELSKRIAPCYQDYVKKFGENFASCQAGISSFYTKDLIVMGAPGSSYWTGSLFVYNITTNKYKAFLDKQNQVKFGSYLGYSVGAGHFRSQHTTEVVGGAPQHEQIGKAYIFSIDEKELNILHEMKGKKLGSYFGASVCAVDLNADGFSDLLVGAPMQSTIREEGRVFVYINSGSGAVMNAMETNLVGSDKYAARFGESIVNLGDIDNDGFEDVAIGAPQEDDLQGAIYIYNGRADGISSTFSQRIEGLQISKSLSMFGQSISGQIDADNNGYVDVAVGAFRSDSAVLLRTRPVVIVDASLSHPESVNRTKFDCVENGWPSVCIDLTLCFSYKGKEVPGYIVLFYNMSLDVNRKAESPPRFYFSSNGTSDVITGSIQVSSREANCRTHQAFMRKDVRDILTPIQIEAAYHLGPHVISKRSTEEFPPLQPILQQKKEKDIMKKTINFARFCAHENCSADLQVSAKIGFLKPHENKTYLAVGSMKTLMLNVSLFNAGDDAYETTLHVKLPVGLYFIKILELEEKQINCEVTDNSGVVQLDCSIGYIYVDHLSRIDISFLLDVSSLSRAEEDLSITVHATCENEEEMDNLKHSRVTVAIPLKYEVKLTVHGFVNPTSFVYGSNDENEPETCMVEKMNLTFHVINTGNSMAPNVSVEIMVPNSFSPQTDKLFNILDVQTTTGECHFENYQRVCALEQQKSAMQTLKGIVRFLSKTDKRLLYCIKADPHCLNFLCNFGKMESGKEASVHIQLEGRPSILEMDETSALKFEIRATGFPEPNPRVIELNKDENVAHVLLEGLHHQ
- Sequence (P26010 20-723 limits assumed, stated change not applied): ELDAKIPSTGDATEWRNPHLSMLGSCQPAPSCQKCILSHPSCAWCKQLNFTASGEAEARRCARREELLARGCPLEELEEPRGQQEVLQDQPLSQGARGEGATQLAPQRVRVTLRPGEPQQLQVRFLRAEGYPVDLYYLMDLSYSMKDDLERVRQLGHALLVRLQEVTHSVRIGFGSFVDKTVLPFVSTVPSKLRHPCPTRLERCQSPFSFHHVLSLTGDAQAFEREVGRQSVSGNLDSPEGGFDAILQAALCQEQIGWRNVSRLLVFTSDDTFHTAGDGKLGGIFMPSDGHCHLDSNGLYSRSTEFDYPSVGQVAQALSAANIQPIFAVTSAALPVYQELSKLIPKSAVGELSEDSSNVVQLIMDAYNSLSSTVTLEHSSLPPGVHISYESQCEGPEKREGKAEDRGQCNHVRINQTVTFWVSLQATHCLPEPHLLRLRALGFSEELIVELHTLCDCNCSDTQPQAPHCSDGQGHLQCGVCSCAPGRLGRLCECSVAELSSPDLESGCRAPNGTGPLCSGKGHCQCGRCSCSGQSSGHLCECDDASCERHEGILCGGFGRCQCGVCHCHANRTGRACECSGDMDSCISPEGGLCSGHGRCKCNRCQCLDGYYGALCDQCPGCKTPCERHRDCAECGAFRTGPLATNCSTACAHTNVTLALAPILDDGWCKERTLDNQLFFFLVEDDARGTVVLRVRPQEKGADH
- Protocol details: Integrin α4β7—MAdCAM-1 ELISA competition assay
- Format: binding
- Assay setup: read-out: ELISA a4b7 Assay IC50
Recorded metric: pIC50
By convention, pIC50 is the negative base-10 log of a molar concentration.

Record request: pIC50 value, item CC(C)C[C@@H]1NC(=O)[C@@H](CCCCN)NC(=O)[C@H](Cc2ccc(-c3ccccc3)cc2)NC(=O)[C@@H]2CCCN2[C@H](C(=O)NC(C)(C)C)[C@H](C)NC(=O)[C@H]([C@@H](C)O)NC(=O)[C@H](CC(=O)O)NC1=O
6.73

// query: CC(C)C[C@@H]1NC(=O)C[C@H](CCCCN)NC(=O)[C@H](Cc2ccc3ccccc3c2)NC(=O)[C@@H]2CCCN2[C@H](C(=O)NC(C)(C)C)[C@H](C)NC(=O)[C@H]([C@@H](C)O)NC(=O)[C@H](CC(=O)O)NC1=O
7.26

// query: COc1cccc(Cl)c1-c1ccccc1C[C@@H]1NC(=O)[C@@H]2CCCN2[C@H](C(=O)NC(C)(C)C)[C@H](C)NC(=O)[C@H]([C@@H](C)O)NC(=O)[C@H](CC(=O)O)NC(=O)[C@H](CC(C)C)NC(=O)C[C@H](CCCCN)NC1=O
7.00

// query: CC(C)C[C@@H]1NC(=O)[C@@H]2C[C@@H](O)CN2C(=O)[C@@H]2CCCN2[C@H](C(=O)NC(C)(C)C)[C@H](C)NC(=O)[C@H]([C@@H](C)O)NC(=O)[C@H](CC(=O)O)NC1=O
6.97
